- Assay method text: yeast display, Sf9 membrane polyspecificity reagent, FACS + sequencing; frameworks hold sequencing errors
Measurement type: polyreactivity (PSR sort gate)

Input sequence	Result
QVQLLESGGGLVQAGGSLRLSCMASGSILADRISWYRQAPRIEHELVATLYDGGITYYADSMKGRFTMSRDNAKNTVYLQMNSLRPEDTAVYYCGASFEGYRYHVYCGQGTQVTVSS	low polyreactivity
QVQLVESGGGLVQAGGSLRLSCAASGLIFKKYTMGWYRQAPGKERELVASISKSGGSTYYADSVKARFTISRDNAKNTVYLQMNSLKPEDTAVYYCAVGSTDRVSAQGSYFTYDYWGQVTQVTVSS	low polyreactivity
QVQLVESGGGLVQAGGSLRLSCAASGRIFQAYAMGWYRQAPGKERELVAAISRSGGGTYYADSVKGRFTISRDNAKNTVYLQMNCLKPEDTAVYYCNARGSTARGRGYWGQGTQVTVSS	high polyreactivity
QVQLVESGGGLVQAGGSLRLSCAASGRIFWYYAMGGYRQAPGKERELVASITSGGRTKYADSVKGRFTISRDNAKNTVYLQMNSLKPEDTAVYYCAARLLIDYHADWWVAYDYWGQGTQVTVSS	low polyreactivity
QVQLVESGGGVVQAGGSLRLSCAASGSIFGVYAMGWYRQAPGQERELVAAIDSGSSTDYADSVKGRFTISRDNAKNTVYLQMNSLKPEDTAGYYCYPLDLAPVDYWGQGTQVTVSS	low polyreactivity
QVQLVESGGGLVQAGGSLRLSCAASGSIFFPYTMGWYRQAPGKERELVAAISERGGDTYYADSVKGRFTISRDNAKNTVYLQMNSLKPEDTAVYDCAAATSPISTSDYWGQGTQVTVSS	low polyreactivity
QLQLVESGGGLVQAGGSLRLSCAASRSTFKYYAMGWYRQAHGKERELVAAISRRGGSTYYADSVKGRFTISRDNAKNTVYLQMNSLKPEDTAVYYCAADIIRPVTVDYWGQGTQVTVSS	high polyreactivity
QVQLVESGGGLVQAGGSLRLSCAASGFTFRLYVMGWYRQAPGKERELVAAISSRGGSTYYADSVKGRFTISRDNAKNTVYLQMNSLKPEDTAVYYCAADRPRGRETVDYWGQGTQVTVSS	high polyreactivity
QVQLVESGGGLGQAGGSLGLSCAASGRTFYVNAMGWYRQAPGKERELVAAISWSGGSTYYADSVKGRFTISRDNAKNTVYLPINSLNPEDTAVYYCAAEDIEDYEYWGQGTQVTVSS	low polyreactivity
QVQLVESGGGLVKAGGSLRLSCAASGSTFSRYAMGWYRQAPGKEREFVADITFRTSSTNYADSVKGRFTISRDNAKNTVYLQMNSLKPEDPAVYYCATDTQYKSYAHDYWGQGTQVTVSS	low polyreactivity
QVQLVESGGGLVQAGGSLRLSCAASGFIFGKYAMGWYRQAPGKERELVAAITSDGRTYYADSVKGRFTISRDNAKNTVYLEMNSLKPEDTAVYYCAVDYYWYWYSGYDDYWGQGTQVTVSS	high polyreactivity

###

- Assay method text: yeast display, Sf9 membrane polyspecificity reagent, FACS + sequencing; frameworks hold sequencing errors

Input sequence	polyreactivity (PSR sort gate)
QVHLVESGGGLVQAGGSLRLSCAASGIIFGRNVMGWYRQAPGKERELVAAISSSGGRTYYADSVKGRFTISRDNAKNTVYLQMNSLNPEVTAVYYCAADEVTKKNSFPRIMDYWGQGTQVTVSS	high polyreactivity
QVQLGESGGGLVQAGGSLRLRCAASGSNFRTYVMGWYRQGPGKERELVAAISRRGGSTYYADSVKGRFTISRDNAKNTVYLPMNSLKPEDTAVYNCAAEDEYSLEYSTLDYWGQGTQVTVSS	high polyreactivity
QVQLVESGGGLVQAGGSLRLSCAASGSIFRYNTMGWYRPAPGKERELVATITRRGGSTYYADSVKGRFTISRDNAKNTVYLQMNSLKPEDTAVYYCIADNFGGPYNYWGQGTQVTVSS	low polyreactivity
QVQLVESGGGLVQAGGSLRLSCAAYGRIFNEYAMGWYRQAPGKERELVAAITYSDDSTYYADSVKGRFTISRDNAKNTVYLQMISLKPEDTAVYYRNADTPVWDGHAYPVDYWGQGTQVTVSS	low polyreactivity
QVQLVESGGGLVQAGGSLRLSCAASGRIFGRNVMGWYRQAPGKERELVAAITTGGGSTYYADSVKGRFTISRDNAKNTVYLQMNSLKPEDTAVYYCATDRRHEYSSRRYYYWGQGTQVTVSS	high polyreactivity
QVQHVESGGGLVQAGGSLRLSCAASGSTFGRYAMGWYRQAPGKERELVARISWGGGSTYYADSVKGRFTISRDNAKNTVYLQMNSLKPEDSAVYYCATRVYRSAVSYDYWGQGTQVTVSS	high polyreactivity
QVQLVESGGGLVQAGGSLRLSCAASGFIFRGNTMGWYRQAPGKERELVAAISASGGSTYYADSVKGRFTISRDNAKNTVYLQMNSLKPEDTAVYYCNVAVIYRSRTYWYGMDYWGQGTQLTVSS	high polyreactivity
QVQLVDSCGGLVQAGGSLRLSFAASGRIYGPYAMGWYRQAPGKERELVAAISFSGSGTYYADSVKGRFTISRDNAKNTVYLQMNSLKPEDTAVYYCAADRWAHTHRLGYWGQGTQVTVSS	low polyreactivity
QVQLVESGGGLVQAGGSLRLSCAASGSTFDYYVMGWYRQAPGKERELVAAISLSGGSTYYADSVKGRFTISRDNAKNTVYLQMNSLKPEHTAVYYCAAQTKPASRVTYYWYYYWGQGTQVTVSS	high polyreactivity
QVQIVESGGGLVQAGGSLRLSCAAYGFTFYPYAMGWYRQAPGKERELVAAITRGGSTYYADSVKGRFTISRDNEKNTVYLQMNSLKPEDTAVYYCNAYWQGYGYDYWGQGTQVTVSS	low polyreactivity
QVQLVESGGGLVQAGGSLRLSCAASGRIFVYNAMGWYRQAPGKERELVAAISKGGGSTYYADSVKGRFTISRDNAKNTVYLQMNSLKPEDTAVYYCAAVVSGRYWGKKITYDYWGQGTQVSVSS	high polyreactivity

###

- Assay method text: yeast display, Sf9 membrane polyspecificity reagent, FACS + sequencing; frameworks hold sequencing errors
Measurement type: polyreactivity (PSR sort gate)

Input sequence	Measurement type	Result
QVQLVESGGGLVQAGGSLRLSCAASGSTFTSNAMGWYRQAPGKERELVASISWSGGRTYYADSVKGRFTISRDNAKNTVYLQMNSLKPEDTAVYYCAAASYQSRYWNYYWGQGTQVTVSS	polyreactivity (PSR sort gate)	high polyreactivity
QVQLVESGGGLVQAGGSLRLSCAASGFTFYYYTMGWYRQAPGKERELVAAITWRGGSTNYADSVKGRFTISRDNAKNTVYLQMNSLKPEDTAVYYCAAVTYWFWPGMDYWGQGTQVTVSS	polyreactivity (PSR sort gate)	low polyreactivity
QVQLVESGGGLVQAGGSLRLSCAASGSLLADNAMGWSRQAPGKERELVAAISRRGGRTYYADSVKGRFTISRDNAKNTVYLQMNSLKPEDTAVYYCAAVGSFHIVDYWGQGTQVTVSS	polyreactivity (PSR sort gate)	high polyreactivity
QVQLVESGGGLVQAGGSLRLSCAASGSTFWIYAMGWYRQAPGKERELVAAISWSTGRTYYADSVKGRFTISRDNAKNTVYLQMNSLKPEDTAVYYCNAGPQHNTLKLFYYWGQGTQVTVSS	polyreactivity (PSR sort gate)	low polyreactivity
QVQLVESGGGLVQAGGSLSLSCAASGSIFYVYAMGWYRQAPGKERELVASINKSGGSTYYADSVKGRFTISRDNAKNTVYLQMNSLKPEDTAVYYCAARYGWPRVGFQYPAHVGFDYWGQGTQVTVSS	polyreactivity (PSR sort gate)	low polyreactivity

###

- Assay method text: yeast display, Sf9 membrane polyspecificity reagent, FACS + sequencing; frameworks hold sequencing errors

Input sequence	polyreactivity (PSR sort gate)
QVLLVESGGGLVQEGGSLRLSCAASGITFDTYAMGGYRQAPGKEREFVASIKWITGNTYYEDSVKGRFTISRDNAKNTVYLQMNSLKTEDTAVYYCAARTYYVRGLGGRPGMDYWGQGTQVTVSS	low polyreactivity
QVQLVESGGGLVQAGGSLRLSCAASGSIFDEYAMGWYRQAPGKERELVAAITRTGGRTYYADSVKGRFTISRDNAKNTVYLQMNSLKPEDTAVYYSAKGTNYRDDYWGQGTQVTVSS	low polyreactivity
QVQLVESGGGLVQAGGSLRLSCAASGFTFGYYAMGWYRQAPGKERELVAAINWSGVNTNYADSVKGRFTISRDNAKNTVYLQMNSLKPEDTAVYYCAADAGYDGYGYWGQGTQVTVSS	low polyreactivity
QVQLVESGVGLVQAGGSLRLSCAASGSTFGGYAMGWYRQAPGKDTEFVAAISYDGDSTYYADSVKGRFTISRDNAKNTVYLQMNSLKPEDTAVYYCAADISYHYGVWYFYYWGQGTQVTVSS	low polyreactivity
QVQLVESGGGLVQAGGSLRLSCAASGNIFRPYTMGWYSQAPGKERQLVARISSGGSTNYADSVKGRFTISRDNAKNTVYLQMNSLKPEDTAVYYCAKRYGTVHSRYGYWGQGTQVTVSS	high polyreactivity
QVQLVESVGGLVQAGGSLRLSCAASGSTFYPNAMGWYRQAPGKEREFVAAITWSGGRTYYADSVKGRFTNSRDNAKNTVYLQMNSLKPEDTAVYYCSKGGYQHYCGQGTQVTVSS	high polyreactivity
QVQLVESGGGLVQAGGSLRLSCAASGRIWSNAMGWYRQAPGKERELVAVISSRGGSTYYADSVKGRFTISRDNAKNTVYFQMNSLKPEDTAVYYCAARQRAKYNYWGQGTQVTVSS	high polyreactivity
QVQLVESGGGLVQAGGSLRLSCAASGITFGSNAMGWYRQAPGKERELVAAISRSGGRTYYADSVKGRFTISRDNAKNTVSLQMNSLKPEDTAVYDCATDSYTTGEYWGQGTQVTVSS	high polyreactivity
QVQHVESGGGLVQAGGSLRLSCAASGRIFHFNAMGWYRQAPGKERELVAAISYRGGSTYYADSVKGRFTISRDNAKNTVYLQMNSLKPEDTAVYYCAAYTRHSARTYYYSYDYWGQGTQVTVSS	high polyreactivity
QVQLVESGGGLVQAGGSLRLSCAASGSTFETYAMGWYRQAPGKERELVAVITSDGSTNYADSVKGRFTISRDNAKNTVYLQMNSLKPEDTAVYYCNADYGFYVPGYPIYWIYEYWGQGTQVTVSS	low polyreactivity
QVQLVESGGGLVQAGGSLRLSCAASGSTFRWYAMGWYRQAPGKERELVAAITSGGSTNYADSVKGRFTISRDNAKNTVYLQMNSLKPEDTAVYYCNKVYPVVRYEPQYDYWGQGTQVTVSS	low polyreactivity
QVQLVESGGGLVQAGGCLRLSCAASGSIFWGYAMGWYRPAPGKERELVAAITDSGGRTYYADSVKGRFTISRDNAKNTVYVQMNSQKPEDTAVYYCAADYYSQYYYYAVPDRDYWGQGTQVTVSS	low polyreactivity
QVQLVESGGGLVQAGGSLRLICAASGSIFVNNAMGWYRQAPGKERELVAAISRSGGSTYYADSVKGRFTISRDNAKNTVYLQMNSLKPEDTAVYYCATVHRSSTPPEFNYWGQGTQVTVSS	high polyreactivity
QVQLVESGGGLVQAGGSLRLSCAASGRTFKTYTMGWYRQEPGKERELVAVISSGGGSTNYADSVKGRFTISRDKAKNTVNLQMNSRKPEDTAVYYCAARKPGRPKYRYDYWGQGSQVTVSS	low polyreactivity
QVQLVESGGGLVQAGGSLRLSCAASGSIFGRYAMGWYRPAPGKDRELVAAISDDSSTNYADSVKGRFTISRDNAKHNDYLQMHSLKPEVTAVYYCNADSWRYVAEGLWREYDYWGQGTQVTVSS	low polyreactivity
QVQLVESGGGLVQAGGSLRLSCAASGRTIRGNAMGWYRQAPGKERELVAAIRWNGGSTYYADSVKGRFTISRDNAKNTVYLQMNSLKPEDSAVSYCAVSYWYSRYDYWGQGTQVTVSS	high polyreactivity
QVQLVESGGGLVQAGGSLRLSCAPSGSTFYRYAMGWYRQAPGKERELVAAISSSGGRTYYADSVKGRFTISRDNAKNTDYLQMNSLKPEDTAVYYCAADYTKHYWGQGTQVTVSS	high polyreactivity
QVQLVETGRGLVQAGGSLRLSCAHSGRTFFSYAMGWYRQAPGKEREFVAAITGGGTYYADSVKRRFTISSDNAKNTVYLHMNSLKPEDTAVYYCAAAKRGTDYLSSFWMDYWGQVTQVTVSS	low polyreactivity
QVQLVESGGGLVQAGGSLRLSCAASGRIFQSYAMGWYRQAPGKERELVAGINSDTSTNYADSVKGRFTISRDNAKNTVYLQMNSLKPEDTAVYYCNAGWDTYYWQSTEFDYWGQGSQVTVSS	low polyreactivity
QVQLVESGGGLVQAGGSLRLSCAASGFIFNRNAMGWYRQAPGKERELVAAITWSASRTYYADSVKGRFTISRDNAKNTVYLQMNSLKPEDTAVSYCAARRYRGYDYWGQGTQVTVSS	high polyreactivity
QVQLVESGGGLVQAGGSLRLSCAASGGTFGYNAMGWYRQAPGKERELVAAIRNCGSTYYADSVKGRFTISRDNAKNTVYLQMNSLKQEDTAVYYCAAKVYRKLNYWVQGTQVTVSS	high polyreactivity
